tested on: MOLT-4 leukemia; assay: NCI tumour cell line growth inhibition, 48 h
Measured TGI values are reported for all entries that follow.

compound | TGI
CN(C)CCNC(=O)c1cccc2nc3c(ccc4ccccc43)nc12 | 1.6 µM
COc1cc(Nc2ncc3c(C)nc(-c4cccc(C(F)(F)F)c4)n3n2)cc(OC)c1OC | 15.4 µM
COc1cc(Nc2cc(O)c3c(=O)cc(-c4ccccc4)oc3c2)cc(OC)c1 | > 100 µM
CN(C)c1nc2nonc2nc1Nc1ccccc1 | > 100 µM
CCCCCCCCNC(=O)SCCCC | 84.9 µM
CC(C)(C)OC(=O)C1=C(O)C(C(=O)OC(C)(C)C)C23CCCCC12C(C(=O)OC(C)(C)C)C(O)=C3C(=O)OC(C)(C)C (stereo unspecified) | > 100 µM
O=C(/C=C/c1c(-c2ccccc2)[nH]c2ccccc12)S(=O)(=O)c1ccccc1 | > 100 µM
CCn1cc(C(=O)O)c(=O)c2ccc(C)nc21 | > 100 µM
CCC(=O)OCC1OC(n2cnc3c(=S)nc(N)[nH]c32)C(OC(=O)CC)C1OC(=O)CC (stereo unspecified) | > 100 µM
Cc1cc(=O)[nH]c(-n2[nH]c3c(c2=O)CCCC3)n1 | > 100 µM
C=C(C)[C@@H]1/C=C(/C(C)C)CC[C@@]2(C)OC2CC[C@H](C)CC1=O (stereo partly specified) | 40.9 µM
O=C(O)/C(=C/c1ccccc1)c1ccccc1 | > 100 µM
O=C1C(=O)/C(=C/c2ccccc2)CCCCCC/C1=C/c1ccccc1 | 10.7 µM
Cc1ccc(-c2cc(=O)c3cc4c(cc3[nH]2)OCO4)cc1 | > 42.6 µM
CCOC(=O)/C=C1/Oc2ccccc2C1(C)O (stereo unspecified) | > 100 µM
CC(C)(C)[Si](C)(C)OC1(CCc2ccccc2OS(=O)(=O)C(F)(F)F)CCCC=C1COCc1ccccc1 (stereo unspecified) | > 62.3 µM
Cc1ccc(N(CC(=O)Nc2ccc(S(=O)(=O)NC3CCN(C)CC3)cc2)S(=O)(=O)c2ccc(Cl)cc2)cc1 | 10.1 µM
c1ccc(COC2NCCN2Cc2ccccc2)cc1 (stereo unspecified) | > 100 µM
CCOC(=O)NC(NCC(O)c1ccccc1)(C(F)(F)F)C(F)(F)F (stereo unspecified) | > 100 µM
COC(=O)N/N=C(/CC1(O)C(=O)Nc2ccc([N+](=O)[O-])cc21)c1ccccc1 (stereo unspecified) | > 66.7 µM
CN1N(c2ccccc2)C(=O)C2=NC=C(C(=O)c3ccccc3)C(=N)C21C (stereo unspecified) | > 100 µM
